Where these numbers come from: patent US20240261333A1

Provide the recorded C-term flag for the entries that follow.
Assay system: T1, B3GNT2 (Homo sapiens, UniProt Q9NY97)
T1 construct: The respective ORFs of candidate genes [CD274 (NM_014143), MCL1 (NM_021960), JUNB (NM_002229), and B3GNT2 (NM_006577)] were synthesized; expressed in transfected cells; host or cells: A375 melanoma cells (lentiviral ORF overexpression)
T1 sequence (Q9NY97 1-397): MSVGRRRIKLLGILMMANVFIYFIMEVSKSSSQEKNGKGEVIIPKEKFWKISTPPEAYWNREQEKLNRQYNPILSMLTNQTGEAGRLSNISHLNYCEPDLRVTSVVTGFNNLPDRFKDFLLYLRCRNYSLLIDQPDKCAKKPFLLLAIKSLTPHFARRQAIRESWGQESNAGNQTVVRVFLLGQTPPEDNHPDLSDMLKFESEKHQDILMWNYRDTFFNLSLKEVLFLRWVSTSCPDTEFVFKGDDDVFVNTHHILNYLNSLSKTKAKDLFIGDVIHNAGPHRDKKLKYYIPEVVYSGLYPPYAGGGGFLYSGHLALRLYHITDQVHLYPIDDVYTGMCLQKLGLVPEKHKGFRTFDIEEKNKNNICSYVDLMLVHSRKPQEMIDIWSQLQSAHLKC
Procedure text: Co-IP of FLAG-tagged B3GNT2 followed by mass spectrometry
Type: cell-based
Condition description: Co-IP with FLAG antibody, C-terminally FLAG-tagged B3GNT2; mass spectrometry count, unit not given
Keep it simple and answer with nothing but the number.

The molecule listed as CTHRC1 (protein) MWPPGRSITVKLREKTVSRKLEMNGPSAFQGLICGKYNGMCLQGPAGVPGRDGSPGANGIPGTPGIPGRDGFKGEKGECLRESFEESWTPNYKQCSWSSLNYGIDLGKIAECTFTKMRSNSALRVLFSGSLRLKCRNACCQRWYFTFNGAECSGPLPIEAIIYLDQGSPEMNSTINIHRTSSVEGLCEGIGAGLVDVAIWVGTCSDYPKGDASTGWNSVSRIIIEELPK shows C-term flag equal to 2

MAGT1 (protein) QRKKEMVLSEKVSQLMEWTNKRPVIRMNGDKFRRLVKAPPRNYSVIVMFTALQLHRQCVVCKQADEEFQILANSWRYSSAFTNRIFFAMVDFDEGSDVFQMLNMNSAPTFINFPAKGKPKRGDTYELQVRGFSAEQIARWIADRTDVNIRVIRPPNYAGPLMLGLLLAVIGGLVYLRRSNMEFLFNKTGWAFAALCFVLAMTSGQMWNHIRGPPYAHKNPHTGHVNYIHGSSQAQFVAETHIVLLFNGGVTLGMVLLCEAATSDMDIGKRKIMCVAGIGLVVLFFSWMLSIFRSKYHGYPYSFLMS has a reported C-term flag of 2

C-term flag reading for DNAJB11 (protein) GRDFYKILGVPRSASIKDIKKAYRKLALQLHPDRNPDDPQAQEKFQDLGAAYEVLSDSEKRKQYDTYGEEGLKDGHQSSHGDIFSHFFGDFGFMFGGTPRQQDRNIPRGSDIIVDLEVTLEEVYAGNFVEVVRNKPVARQAPGKRKCNCRQEMRTTQLGPGRFQMTQEVVCDECPNVKLVNEERTLEVEIEPGVRDGMEYPFIGEGEPHVDGEPGDLRFRIKVVKHPIFERRGDDLYTNVTISLVESLVGFEMDITHLDGHKVHISRDKITRPGAKLWKKGEGLPNFDNNNIKGSLIITFDVDFPKEQLTEEAREGIKQLLKQGSVQKVYNGLQGY : 4

Entry HLA-A (protein) MHC heavy: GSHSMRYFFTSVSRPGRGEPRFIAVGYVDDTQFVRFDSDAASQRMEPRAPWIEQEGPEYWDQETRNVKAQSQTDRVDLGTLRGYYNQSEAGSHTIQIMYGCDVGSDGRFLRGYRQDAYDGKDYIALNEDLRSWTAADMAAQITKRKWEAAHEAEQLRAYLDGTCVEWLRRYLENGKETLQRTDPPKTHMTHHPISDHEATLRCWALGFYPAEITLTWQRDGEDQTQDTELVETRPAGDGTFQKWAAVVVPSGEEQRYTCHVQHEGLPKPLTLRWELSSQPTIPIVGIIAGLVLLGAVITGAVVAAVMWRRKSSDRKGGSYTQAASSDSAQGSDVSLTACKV — recorded C-term flag = 4

# molecule SFXN3 (protein) MGELPLDINIQEPRWDQSTFLGRARHFFTVTDPRNLLLSGAQLEASRNIVQNYRAGVVTPGITEDQLWRAKYVYDSAFHPDTGEKVVLIGRMSAQVPMNMTITGCMLTFYRKTPTVVFWQWVNQSFNAIVNYSNRSGDTPITVRQLGTAYVSATTGAVATALGLKSLTKHLPPLVGRFVPFAAVAAANCINIPLMRQRELQVGIPVADEAGQRLGYSVTAAKQGIFQVVISRICMAIPAMAIPPLIMDTLEKKDFLKRRPWLGAPLQVGLVGFCLVFATPLCCALFPQKSSIHISNLEPELRAQIHEQNPSVEVVYYNKGL ; its C-term flag = 2

So for SLC25A5 (protein) TDAAVSFAKDFLAGGVAAAISKTAVAPIERVKLLLQVQHASKQITADKQYKGIIDCVVRIPKEQGVLSFWRGNLANVIRYFPTQALNFAFKDKYKQIFLGGVDKRTQFWLYFAGNLASGGAAGATSLCFVYPLDFARTRLAADVGKAGAEREFRGLGDCLVKIYKSDGIKGLYQGFNVSVQGIIIYRAAYFGIYDTAKGMLPDPKNTHIVISWMIAQTVTAVAGLTSYPFDTVRRRMMMQSGRKGTDIMYTGTLDCWRKIARDEGGKAFFKGAWSNVLRGMGGAFVLVLYDEIKKYT , the logged C-term flag turned out to be 30
